Where do the numbers come from? From paper PMC5196488.

# subject_of_test: S7.1R (Dj-S7.1R) (Dugesia japonica)
# Sequence (O15969 1-478): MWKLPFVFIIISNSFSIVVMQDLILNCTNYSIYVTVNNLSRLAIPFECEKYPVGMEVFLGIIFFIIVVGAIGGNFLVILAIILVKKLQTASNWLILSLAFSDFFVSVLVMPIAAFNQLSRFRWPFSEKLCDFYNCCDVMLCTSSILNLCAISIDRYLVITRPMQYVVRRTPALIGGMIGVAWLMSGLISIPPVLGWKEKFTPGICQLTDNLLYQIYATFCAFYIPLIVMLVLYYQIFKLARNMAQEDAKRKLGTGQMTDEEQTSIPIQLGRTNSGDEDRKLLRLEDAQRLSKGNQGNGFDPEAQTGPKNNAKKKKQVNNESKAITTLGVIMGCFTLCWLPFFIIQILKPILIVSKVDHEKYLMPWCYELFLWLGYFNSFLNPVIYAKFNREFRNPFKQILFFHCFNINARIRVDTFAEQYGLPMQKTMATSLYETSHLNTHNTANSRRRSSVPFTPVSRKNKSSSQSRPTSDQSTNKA
# test_description: GloSensor cAMP luminescence in transfected HEK293 cells, peak amplitude
measurement_name: EC50 (nM)
// units = nM; emit number, no label

Record NCCc1c[nH]c2ccc(O)cc12 has S7.1R (Dj-S7.1R) (Dugesia japonica) EC50 equal to 82
